Data credit: the DeepSol protein solubility set

Assay: soluble on expression in E. coli; label from the status in PepcDB or PDB records
QUANTITY: soluble on expression in E. coli

MSISASEARQRLFPLIEQVNTDHQPVRITSRAGDAVLMSADDYDAWQETVYLLRSPENARRLMEAVARDKAGHSAFTKSVDELREMAGGEE; soluble
MSQSSDASEKEKPKEKKSQEELEKELDKELKKGGEPKTKKDDQIHKIGETFKAGHTNFTVNKVDRVQKGEYMNVGGAVNEETKTIKDDEERLIIEVTMENIGEDSISYNFIGFDLRDKNDQSVRPVFSIEEKGRILMGGTLVSGKKVTGVLSYVIPKGEQKHYTLVYNPFLADTNSSNTEERVKDDIDYLVKLDLEHHHHHH; soluble
LTVLELESQIDVLSRIQFVSRFGSNLVHIEGVKGSGKSWLAQRYLEKWCDDADQVLLMCHPNQSIQQQRGIILKQVVRDPLFNESDSVVDSVGRMLAGEKCNLVLAIDDAHLLSSELLSELWLLVQKAQSAPNWQINILLFAEKGKLTQTLSQMSYGQDNKPVDIDINP; soluble

* * *

Experiment: soluble on expression in E. coli; label from the status in PepcDB or PDB records
QUANTITY: soluble on expression in E. coli

MTVETQLNPTQPVNQQIYRILRRDIVHCLIPPGTPLSEKEVSTRFNVSRQPVREAFIKLAENGLIQIRPQRGSYVNKISLSQVQNGCFVRQAIECAVVRRAAAMITDNQCYQLAQNLHLQHIAIERKQIDDFFQLDDDFHQKLAQIADCQLAWDTIENIKATIDRVRYMSLDHVSPPEMLLRQHHDIFSALENRDGNAVESAMTQHLQEISESVQLIRQENSGWFSEE; not soluble
MGSDKIHHHHHHMKICVLYSGGKDSTYALHWAVFKGFEVVCLITLIPKREDSWMFQYPNVIYTKYQAEAMDFKLITFGTSGEKDKELEDLKKALLQAKNEGADGIVSGALLSDYQRLNISIIAEELGLKTYTPLWRKSQEEYMRWLVKEGFKFIITSASAYGFPFDLVGKEITTEDVEKIIERARRYGFNPAFEGGEAETFVTYAPLFKTQLRVNGKLKRISEYECRYEITDIH; not soluble

* * *

Experiment: soluble on expression in E. coli; label from the status in PepcDB or PDB records
QUANTITY: soluble on expression in E. coli

Recorded soluble on expression in E. coli, per entry:
GPGSMADILKSVKRIVVKVGSSILVDNQEIAAHRIEALCKFIADLQTKYEVILVTSGAVAAGYTQKEMDKAYVPNKQALASMGQPLLMHMYYTQLQKHGILCAQMLLAAYDLDSRKRTMNAHNTIEVLISHKVIPIINENDATALHELVFGDNDRLSALVAHHFKADLLVILSDIDGYYTENPRASTDAKIRSVVHELSPDDLVAEATPNNPFATGGIVTKLQAAQFLLERGGKMYLSSGFHLEKAREFLFGGSHEIGTLFYPRGSSS; soluble
TEDFRWKTTFNYSQNRNKVVELAPNYTSFVYGDPGFSMAYMMQIKEGGSLGDIYGNTFARDEQGKIKVSDEGKPISESGNKTYLGNCNPDFLLSWANTFTYKGFSLYFLIDMRKGGDVMSLTQATLDGRGVTKATAEARDRGYVEVDGTRFENVEGFYSVVGDRNGISERYMYSATNIRLRELSLSYSFPSTLLAKTKVFTGIDVSLVGRNLFFFYKDAPFDPDAILSVGNTNQGVDVFGMPTTRNIGFNVKFTF; not soluble
MSREDELLEKLDECENATAFLQVSNKIINLKLKALLPSVFVQDDLVKEYAVDPLLREDGPLVTTDVVSKLMFAMGKISLQTYADIGLYDQVLEYVVTQPEKIAFTDDVIYDFIKNQAVLSSQQDCFYLESINQLKFSSFESFSQMRYESLIKTVLKLSCEMLIERIEE; not soluble
MAITINIYYSGTNGGAREFAKEMIASGIVEAIRAEKGNSRYEYFFPMDDEETVLLIDSWTDQEALDKHHASPMMTRITELREKYDLHMKVERYVSDVTDPLTKDAAFIRK; not soluble

Please report soluble on expression in E. coli for the following sequence: GPVNPAENFRVLVKQKKASFEEASNQLINHIEQFLDTNETPYFMKSIDCIRAFREEAIKFSEEQRFNNFLKALQEKVEIKQLNHFWEIVVQDGITLITKEEASGSSVTAEEAKKFLAPKD
soluble

Please report soluble on expression in E. coli for the following sequence: MSLEKQKGLAIITGASQGIGAVIAAGLATDGYRVVLIARSKQNLEKVHDEIMRSNKHVQEPIVLPLDITDCTKADTEIKDIHQKYGAVDILVNAAAMFMDGSLSEPVDNFRKIMEINVIAQYGILKTVTEIMKVQKNGYIFNVASRAAKYGFADGGIYGSTKFALLGLAESLYRELAPLGIRVTTLCPGWVNTDMAKKAGTPFKDEEMIQPDDLLNTIRCLLNLSENVCIKDIVFEMKKSIIEGHHHHHH
soluble

Please report soluble on expression in E. coli for the following sequence: MLSSKEVYARLDAILPSSVDREDAESNLNAGEIEYAITALLDDAYTSVGLSDAVVSLIRENYDDGPVIDMLDALLYFQKLNSGGDAVRMQR
not soluble

Please report soluble on expression in E. coli for the following sequence: MTEHSLWRFSRALHRALNDRQTEELATIIDDNIDWAIYGPIDMFPFFGARQGKAAVLEVCRQIADSVRIYRYHRESVMLGIDSAASMVRYSLTAAGTNRPISVRMALFTQFQNGRLTNLRMVLDTFDLVEQALGRPIHLPKIA
soluble

* * *

Assay: soluble on expression in E. coli; label from the status in PepcDB or PDB records
QUANTITY: soluble on expression in E. coli

DIGCYTLGALPPYEAINSCVDMGASITMAKGAADAGLFPAVSVIGDSTFTHSGITGLLDAINENSNITVIISDNESISMTGGQHSSAYGKVEAICRGIGVDPDHIRELLPVPKNHDELCSIIREEINYEGVSVIIPRRVCIQKHARDAKAAKRAKA; not soluble
MLETRMQTTPLKIGISACLLGAKVRFDGGHKISHFVTNELDRYAEFVSVCPEMGMGLPVPRPTLRLISENERIALVETKDSSRDHTAALESYSQQKVAELQHAELCGYIVCAKSPSCGMERVKVYKHNGTEKDGVGVYTRILMEKMPWLPIEEDGRLNDPVLRENYITRVFCLHDFYTSMGDAPSAKKIVEFHSRYKLTLMAHNPQAYRALGRLVANVKQYPLDSFIQEYRLGLMQALAHRASRKNNTNVLMHLQGYFKRSLNKLQKAELAQVIESYRVGELPLLAPITLLKHYLALFPDAYLAQQRYLNPYPQELKLRYGL; not soluble
MNRREANALDRYLTEPTEKPHKETYEDDPVDTTDYFGNEIADEDGVFEITFAMKCLYTGQPVLTCKKIATQDTIVDLIEELGEENVYLIEYVSSGKRYKEGLLND; not soluble

* * *

Assay: soluble on expression in E. coli; label from the status in PepcDB or PDB records
QUANTITY: soluble on expression in E. coli

Recorded soluble on expression in E. coli, per entry:
MHLCGVDYYQIDKQGSCKFRFKATQFYRALKNNKVSLRGIKPKDDGTTGQKLQVIPLLEMLISPGVRICDGGKFYNLQYEKAIRSGKMIVALTCKENNKKYVPQSLLSLINQPRKSQSKSLTESHEVIKISKSELNSTSVIEVYDKF; not soluble
MGSDKIHHHHHHMKEQYKIIVLSDELSKEKIQNTLDKNKCKTIVHLVDVSAIVQIENSFQYIVIWRMDAEKITNELINRGVQSTKIINLTKYMYEWRNKLISIYQINPDLMSLYISMKKAKGDPTYELFATGLSYPHCGISTELLSKKSIKLTLPSQDLYYDYLIASQLLSNNHSFQYCLIGIAYFSFYFDMSLSSESYRIHKVYYPLFQDGHHTVVHSHLPTDGFSHLDTPKPLFSIFNMHFEYILLDELKNESLILPWIHAEWNTTPPHIPFEEHGKIRAASHAKLSYPHTLVENKTIFKKYLELLLKHDIKPLIVVFPVTSHYFNCSSKKLKEDFYNVIKDFQSQYSFQIIDLFDSPLFCDDDFYDSDHMNKKGANKMSVLLNMFIQERKV; not soluble
MSLVKISNVRVRPLVLPLKQPYHWSYGIRESFAVNLIEIEADDGTVGIGECTVAPDQTGTAAILYRLAKHLVGHSPHDVAPLIARIFHQEYLGHGANIMRAANQIFSGIDMAMWDLQGKLAGLPVHQLLGGAHRKAVGYFYFLQGETAEELARDAAVGHAQGERVFYLKVGRGEKLDLEITAAVRGEIGDARLRLDANEGWSVHDAINMCRKLEKYDIEFIEQPTVSWSIPAMAHVREKVGIPIVADQAAFTLYDVYEICRQRAADMICIGPREIGGIQPMMKAAAVAEAAGLKICIHSSFTTGITTCAEHHIGLAIPNLDDGNQIMWQLVQEDIVSSPDLTPKNGWLDAFRKPGLGFQLAEDLVAEGEGRYAASREGHHHHHH; soluble
MGTVLCSCLLGDNAKVRLKLSKMLEEEASGFYPDVLPEGSVSICEVEMKGCRREFYADRRSEEIEIGTPVIVEADGGFDMGVVYSTGRIALRKLQLKGLVSEVEKLPAIMRRATEEEVREFTEIRKREPEIREACLKRIERHQLDMKLVDIDLRLDQQKLSVYYTATHRIDFRGLVRDLAGEFKARIQMVQITTREEARRTNAQGSCGCALCCSTWMQKIHSNPFAEKPQMPDSMNGDNFSFNTIGLCNRPKCCLGFSKTNGKNGNCHHGKVRQNGWPSVGTTFTVRDGNAVVEGVDQQKKSIWIRYVSTGQKRRISLDQYNNMAGKRQGGQALEHHHHHH; not soluble

Next item in the queue.
Please report soluble on expression in E. coli for the following sequence: MEGVVRLEVPTPEEGFVNITRKVEAALSGHTGLVYLFVPHTTCGLTVQEGADPTVAQDLLGRLAELAPRHRPQDRHLEGNSHAHLKSLLTGVHLLLLAEKGRLRLGRWQQVFLAEFDGPRVREVWVRLL
soluble
